These data points were gathered from ChEMBL document CHEMBL5120927.

system: Staphylococcus aureus; assay: Antibacterial activity against methicillin resistant Staphylococcus aureus 4591/A assessed as reduction in microbial growth incubated for 24 hrs by microdilution assay; assay type: functional
Item-by-item account of MIC

>  <Compound>
CCCCCOP(=O)(CCN(CCCN)CCCN)OCCCCCCCCOP(=O)(CCN(CCCN)CCCN)OCCCCC.Cl.Cl.Cl.Cl.Cl.Cl (stereo not given)

>  <Target system>
Staphylococcus aureus

>  <MIC>
8 µg/mL

$$$$
>  <Compound>
CCCCCOP(=O)(CCN(CCCN)CCCN)OCCCCCCCCCCCCOP(=O)(CCN(CCCN)CCCN)OCCCCC.Cl.Cl.Cl.Cl.Cl.Cl (stereo not given)

>  <Target system>
Staphylococcus aureus

>  <MIC>
1 µg/mL

$$$$
>  <Compound>
CCCCCCCOP(=O)(CCN(CCCN)CCCN)OCCCCCCCOP(=O)(CCN(CCCN)CCCN)OCCCCCCC.Cl.Cl.Cl.Cl.Cl.Cl (stereo not given)

>  <Target system>
Staphylococcus aureus

>  <MIC>
1 µg/mL

$$$$
>  <Compound>
CCCCCCOP(=O)(CCN(CCCN)CCCN)OCCCCCCCCCCCCOP(=O)(CCN(CCCN)CCCN)OCCCCCC.Cl.Cl.Cl.Cl.Cl.Cl (stereo not given)

>  <Target system>
Staphylococcus aureus

>  <MIC>
0.5 µg/mL

$$$$
>  <Compound>
Cl.Cl.Cl.Cl.Cl.Cl.NCCCN(CCCN)CCP(=O)(OCCCCCCOP(=O)(CCN(CCCN)CCCN)OCCc1ccccc1)OCCc1ccccc1 (stereo not given)

>  <Target system>
Staphylococcus aureus

>  <MIC>
64 µg/mL

$$$$
>  <Compound>
CCCC/C=C\CCOP(=O)(CCN(CCN)CCN)OCCCCCCOP(=O)(CCN(CCN)CCN)OCC/C=C\CCCC.Cl.Cl.Cl.Cl.Cl.Cl (stereo not given)

>  <Target system>
Staphylococcus aureus

>  <MIC>
1 µg/mL

$$$$
>  <Compound>
CCCCCCCCOP(=O)(CCN(CCN)CCN)OCCCCCCOP(=O)(CCN(CCN)CCN)OCCCCCCCC.Cl.Cl.Cl.Cl.Cl.Cl (stereo not given)

>  <Target system>
Staphylococcus aureus

>  <MIC>
0.5 µg/mL

$$$$
>  <Compound>
CCC/C=C\CCOP(=O)(CCN(CCCN)CCCN)OCCCCCCCCOP(=O)(CCN(CCCN)CCCN)OCC/C=C\CCC.Cl.Cl.Cl.Cl.Cl.Cl (stereo not given)

>  <Target system>
Staphylococcus aureus

>  <MIC>
4 µg/mL

$$$$
>  <Compound>
Cl.Cl.Cl.Cl.Cl.Cl.NCCCN(CCCN)CCP(=O)(OCCCCCCOP(=O)(CCN(CCCN)CCCN)OCC1CCCC1)OCC1CCCC1 (stereo not given)

>  <Target system>
Staphylococcus aureus

>  <MIC>
128 µg/mL

$$$$
>  <Compound>
Cl.Cl.Cl.Cl.Cl.Cl.NCCCN(CCCN)CCP(=O)(OCCCCCOP(=O)(CCN(CCCN)CCCN)OCC12CC3CC(CC(C3)C1)C2)OCC12CC3CC(CC(C3)C1)C2 (stereo not given)

>  <Target system>
Staphylococcus aureus

>  <MIC>
2 µg/mL

$$$$
